- Method notes: NCI Yeast Anticancer Drug Screen. Data for the mlh1 strain (AID 171);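 also: 0% = growth of vehicle-treated control cultures of the same strain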
- Experimental conditions: S. cerevisiae mlh1 strain growth inhibition; at 1.2 µM; stronger effect = higher value
The panel holds about 79,000 compounds, 15% with a hit somewhere; the sample as a whole holds those more often.
A collection of compounds and their measured growth inhibition
Recorded endpoint: growth inhibition (%)

INSERT INTO results (compound, measurement_unit, readout_value) VALUES
  ('CC(C)C1=CC2=C[C@H](O)[C@H]3C(C)(C)CCC[C@]3(C)C2=C(O)C1=O', '%', -13),
  ('O=C(CC(=O)n1nc(-c2ccccc2)c(N=Nc2ccccc2C(=O)O)c1-c1ccccc1)Nc1ccc(Cl)cc1', '%', -2),
  ('O=CNc1ccc2c(c1)C(=O)c1ccccc1-2', '%', 3),
  ('COC(=O)CSSCc1ccc([N+](=O)[O-])cc1', '%', -4),
  ('O=C1CSC(/C=C/c2ccccc2)N1c1ccc(-c2ccc(-n3c(-c4ccccc4)nc4ccccc4c3=O)cc2)cc1 (configuration not stated)', '%', -2),
  ('CC(/C=C/c1ccc2c(c1)OCO2)[N+](=O)[O-] (configuration not stated)', '%', -2),
  ('CC1OCC2OC(C)OC(C3C4=C(CC(C)(C)CC4=O)OC4=C3C(=O)CC(C)(C)C4)C2O1 (configuration not stated)', '%', 1),
  ('O=C1c2ccccc2-c2nc3ccccc3nc21', '%', -31),
  ('CCCCOC(=O)N[C@H]1CCc2cc(OC)c(OC)c(OC)c2-c2ccc(SC)c(=O)cc21', '%', -4),
  ('COc1cc(C2SCC(=O)N2c2nnc(C(F)(F)F)s2)cc(OC)c1OC (configuration not stated)', '%', -3),
  ('COc1ccc2c(c1)C(=O)c1ccccc1C2', '%', 1),
  ('CNC(=O)OCc1c(COC(=O)NC)c(-c2ccc(-c3ccccc3)cc2)n(C)c1C', '%', -1),
  ('CCC[CH2][Ge]([CH2]CCC)([CH2]CCC)[O]C(=O)C(OC)c1ccccc1 (configuration not stated)', '%', -4),
  ('CC(=O)[O][Bi]([c]1ccccc1)[c]1ccccc1', '%', 28),
  ('CSC1=NNC(SC)=NN1', '%', -3),
  ('CC(C)c1cc(C(C)C)c(O)c(C([O-])[O-])c1.CC(C)c1cc(C(C)C)c(O)c(C([O-])[O-])c1.CC(C)c1cc(C(C)C)c(O)c(C([OH2+])[OH2+])c1.CC(C)c1cc(C(C)C)c(O)c(C([OH2+])[OH2+])c1.[Cu+2].[Cu+2].[OH3+].[OH3+]', '%', 2),
  ('CCC/C(Cl)=N\OC(=O)Nc1cccc(C(F)(F)F)c1', '%', 3),
  ('O=S(=O)(CCCl)c1ccccc1Cl', '%', -10),
  ('CCCCCCCCCCC1CCC(=O)O1 (configuration not stated)', '%', -2),
  ('CN1Cc2ccccc2/C=C\c2ccccc21', '%', 9),
  ('CCC(C)COC(=O)c1ccc(N=Cc2ccc(C=Nc3ccc(C(=O)OCC(C)CC)cc3)cc2)cc1 (configuration not stated)', '%', 0),
  ('C/C(=N\NC(=S)N1CCCCC1)c1cccc(C)n1', '%', 1);

* * *

- Method notes: NCI Yeast Anticancer Drug Screen. Data for the mec2-1 strain (AID 157)
- Experimental conditions: S. cerevisiae mec2-1 strain, at 50.0 µM
About 79,000 compounds went through this panel and 15% of them were active in at least one assay; those are over-represented in the sample as a whole. Activity calls are given as the source filed them. Cut-off read from the data, not from the text of the source: active = growth inhibition above about 70%; inactive = the rest.
Outcome codes: yes (1) (active), no (0) (inactive)

INSERT INTO measurements (compound, assigned_category) VALUES
  ('CCCCc1cc(O)ccc1O', 'no (0)'),
  ('CCC(C(=O)O)C1=C(c2ccccc2)CCc2ccccc21 (configuration not stated)', 'yes (1)'),
  ('S=C(Nc1ccc(Cl)c(Cl)c1)SCc1ccc2c(c1)OCO2', 'yes (1)'),
  ('Cn1ccnc1Oc1ccc(Cl)cc1', 'no (0)'),
  ('Nc1ncncc1C(C1=C(O)COC1=O)C1=C(O)COC1=O', 'no (0)'),
  ('BrCc1cccc2ccc3cccc(CBr)c3c12', 'no (0)'),
  ('O=C(O)C1CCCCC1c1c2ccc(=O)c(O)c-2oc2c(O)c(O)ccc12 (configuration not stated)', 'yes (1)');

* * *

- Method notes: NCI Yeast Anticancer Drug Screen. Data for the wt2 strain (AID 169);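 also: 0% = growth of vehicle-treated yeast cultures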
- Experimental conditions: S. cerevisiae wt2 strain growth inhibition; at 33.0 µM; stronger effect = higher value
Compounds without any hit were thinned out: in the full panel of roughly 79,000, 15% have a hit.
Recorded endpoint: growth inhibition (%)

INSERT INTO measurements (molecule, recorded_endpoint, readout_value) VALUES
  ('CC(=O)SCCC[Si](C)(C)CCCSC(C)=O', 'growth inhibition', 5),
  ('CC1=C(SCCO)C(=O)c2ccccc2C1=O', 'growth inhibition', 18),
  ('CCCCCCCCCC/C=C\C(=O)O', 'growth inhibition', -7),
  ('O=C(Nc1ccccc1)OCCc1ccc(Cl)c(Cl)c1', 'growth inhibition', 24),
  ('CCC(=O)OCCn1c2nc(=O)[nH]c(=O)c-2nc2cc(C)c(C)cc21', 'growth inhibition', 85),
  ('O=C(c1cc(Br)ccc1O)c1cc(Br)ccc1O', 'growth inhibition', 100),
  ('O=C(c1ccc(Cl)cc1Cl)C(Cl)Cl', 'growth inhibition', 71),
  ('CC(C)C1=CCC2C(=C1)CCC1C(C)(C(=O)O)CCCC21C (centres undefined) (tested in a mixture with another compound)', 'growth inhibition', 63),
  ('Cc1cc(I)ccc1N', 'growth inhibition', 88);

* * *

- Method notes: NCI Yeast Anticancer Drug Screen. Data for the bub3 strain (AID 167)
- Experimental conditions: S. cerevisiae bub3 mutant strain, at 3.7 µM, stronger effect = higher value
This is part of a sample that, as a whole, favours compounds with a hit. Of some 79,000 tested, about 15% had one in any assay.
Recorded endpoint: growth inhibition (%)

INSERT INTO measurements (molecule, readout_value) VALUES
  ('Cc1ccc(NC(=O)/C(Cl)=C(\Cl)C(=O)O)cc1C', 5),
  ('Cc1ccc(NN(NC(=O)OC(C)C)C(=O)OC(C)C)cc1', -3),
  ('COC(=O)C1=C(C)NC(C)=C(C(=O)OC)C1c1cccc(/[N+]([O-])=C/c2ccccc2)c1', 4),
  ('Nc1ncncc1C(C1=C(O)COC1=O)C1=C(O)COC1=O', -1),
  ('Cc1cc2c(cc1C(=O)CCC(=O)O)CC1(C2)Cc2cc(C)c(C(=O)CCC(=O)O)cc2C1', 0),
  ('FC(F)(F)c1cc(NC(=S)N2c3ccccc3-n3cccc3C2c2cccnc2)cc(C(F)(F)F)c1 (stereo unspecified)', -5),
  ('CC(/C=C/c1ccc(Cl)cc1)=N\NC(=S)NCC(C)C', -1),
  ('CCCCCCCCCCCCCCC(C(=O)[O-])[n+]1ccccc1 (stereo unspecified)', -27),
  ('CNC1C(OC2C(OC3C(O)C(O)C(N=C(N)N)C(O)C3N=C(N)N)OC(C)C2(O)CO)OC(CO)C(O)C1O (stereo unspecified)', -1),
  ('COc1ccc2nc3c([N+](=O)[O-])ccc(NCCN(C)C)c3c(NCCN(C)C)c2c1', -7),
  ('COc1ccc(OC)c2cc3ccccc3cc12', 8),
  ('O=C1CSC(/C=C/c2ccccc2)N1c1ccc(-c2ccc(-n3c(-c4ccccc4)nc4ccccc4c3=O)cc2)cc1 (stereo unspecified)', 12),
  ('CCCCc1cc(O)ccc1O', -1),
  ('O=[N+]([O-])c1ccc(=S)[nH]c1', -7),
  ('Cc1nn(-c2cc(Cl)ccc2[N+](=O)[O-])c(C)c1Cl', 7),
  ('CC(CC(C)(C)[N+](C)(C)C)[N+](C)(C)C (stereo unspecified)', -8),
  ('CC(C)[N+]([O-])(CCCNc1c2ccccc2nc2cccc([N+](=O)[O-])c12)C(C)C', -8),
  ('O=c1c2ccccc2ncn1COCc1ccccc1', -18),
  ('CN(C)Cc1cc(N=Nc2ccc(Cl)cc2)cc(CN(C)C)c1O', 2),
  ('Nc1nc(-c2cccnc2)cc(-c2cc(-c3cccnc3)nc(N)n2)n1', -6),
  ('O=[N+]([O-])c1cc2no[n+]([O-])c2cc1N1CCCCC1', -8);

* * *

- Method notes: NCI Yeast Anticancer Drug Screen. Data for the mec2-1 strain (AID 157)
- Experimental conditions: S. cerevisiae mec2-1 strain, at 5.0 µM (retest, dose inferred, filed as 0.5), stronger effect = higher value
About 79,000 compounds went through this panel and 15% of them were active in at least one assay; those are over-represented in the sample as a whole. Active and inactive are the calls of the source. No stated cut-off is given here; in the data, active means growth inhibition above about 70%; inactive means the rest.
A collection of molecules and their measured growth inhibition
Recorded endpoint: growth inhibition

INSERT INTO assay_data (molecule, recorded_endpoint, readout_value) VALUES
  ('S=C(N/N=C(/c1ccccc1)c1ccccn1)N1CCCCCC1', 'growth inhibition', '24% (inactive)'),
  ('NNc1c(F)c(F)cc(F)c1F', 'growth inhibition', '-11% (inactive)'),
  ('Cc1cccc2c(C(O)CBr)cc(-c3ccc(Cl)cc3)nc12 (centres undefined)', 'growth inhibition', '1% (inactive)'),
  ('NC(=NCc1ccccc1)N/N=C\c1ccnc2ccccc12', 'growth inhibition', '2% (inactive)'),
  ('CSc1nc(=S)[nH]c2c1c(C)nn2-c1ccccc1', 'growth inhibition', '16% (inactive)'),
  ('c1ccc2c(c1)C(=NCCCN1CCCCCC1)c1cccn1-2', 'growth inhibition', '0% (inactive)'),
  ('CNC1C(OC2C(OC3C(O)C(O)C(N=C(N)N)C(O)C3N=C(N)N)OC(C)C2(O)CO)OC(CO)C(O)C1O (centres undefined)', 'growth inhibition', '-15% (inactive)'),
  ('CCCCOC(=O)N[C@H]1CCc2cc(OC)c(OC)c(OC)c2-c2ccc(SC)c(=O)cc21', 'growth inhibition', '-19% (inactive)'),
  ('CCCCCCCC1(N=[N+]=[N-])C(=O)c2ccccc2N(C)C1=O (centres undefined)', 'growth inhibition', '-1% (inactive)');

Source of measurements: PubChem BioAssay (NCI)
